Assay: Half-life in 20% serum solution at 37 degree C.
Format: ADME, cell-free
The entries below come with measured half-life values attached.
Only the number, expressed in h, is required.

>>> data_value("CC(C)N(/C=N\\c1ccn(C2CC(F)C(CO)O2)c(=O)n1)C(C)C (configuration not stated)")
56.5

Continue with the compound presented below.
(Q) Recall and state the measured half-life for CC(C)N(/C=N\c1ccn(C2CCC(CO)O2)c(=O)n1)C(C)C (configuration not stated) .
(A) 51.2

###

The entries below come with measured half-life values attached.
Experiment: Half-life in 10% serum solution at 37 degree C.
Assay type: ADME, cell-free
Only the number, expressed in h, is required.

(Q) Recall and state the measured half-life for CC(C)N(/C=N\c1ccn(C2CCC(CO)O2)c(=O)n1)C(C)C (configuration not stated) .
(A) 47.3

(Q) Recall and state the measured half-life for CC(C)N(/C=N\c1ccn(C2CC(F)C(CO)O2)c(=O)n1)C(C)C (configuration not stated) .
(A) 52.4
